The measurements presented in this section are drawn from PubChem BioAssay (NCI).

Tested on: SK-MEL-2 melanoma
Assay: NCI-60 one-dose screen, 48 h
Conditions: 10 µM
Experimental: Growth inhibition of the SK-MEL-2 human tumor cell line is measured as a screen for anti-cancer activity. Cells are grown in 96 well plates and exposed to the test compound for 48 hours. Compounds are tested at a single concentration, which is 10^-5 M for most compounds. The reported endpoint is percent growth (GI% or GIPRCNT), where numbers from 0 - 100% represent growth inhibition, and numbers from -100% - 0 represent cell death. For example, a value of 40 represents 60% growth inhibition. […]
Compounds without any hit were thinned out: in the full panel of roughly 83,000, 20% have a hit. Active and inactive are the calls of the source. How the source made its calls: active means growth percent below 10; inactive means the rest.
Respond using exactly one of the listed classes: active, inactive

Previously resolved entries follow.
* O=[N+]([O-])c1ccc(N=Nc2ccc(O)c3ccccc23)cc1 | inactive
* Cc1cc(=O)cc(C)n1-c1ccccc1 | inactive
* CCCCCCCCCCCCCC(=O)Oc1ccc[nH]c1=O | inactive
* COc1ccccc1NC(=O)c1cc2cc(Br)ccc2cc1O | active
* CC(=O)c1sc2c(c1OC(=O)c1ccc(Cl)cc1Cl)c(=O)n(-c1ccccc1)c(=S)n2-c1ccccc1 | active

Request: What classification did O=C(NN=C1CCCCC1)C(=O)NN=C1CCCCC1 end up with in this test?
Response: inactive

Request: Now the compound COc1ccc(C(=O)C(Br)C(Br)C(=O)O)cc1 (configuration not stated)
Response: inactive

Request: Now the compound CCCNC(=O)c1ccc(S(N)(=O)=O)cc1
Response: inactive

Request: Now the compound CC(C)C1CCCCC1O (configuration not stated)
Response: inactive

Request: Now the compound Cc1ccc(Cl)cc1N1C(=O)CC(Sc2ccccc2N)C1=O (configuration not stated)
Response: inactive

Request: Now the compound COC(=O)c1ccccc1N(C)C
Response: inactive

Request: Now the compound O=C(/C=C\c1ccc(O)cc1)c1ccccc1
Response: inactive
